Tested on: Hs-578T
Assay: NCI tumour cell line growth inhibition, 48 h
Calls of active or inactive are those of the source. Cut-off read from the data, not from the text of the source: active = GI50 up to about 1.1 µM and inactive = higher.
quantity measured: GI50

Check out these entries, answers already filled in.
compound	GI50
C/C(=N\NC(=O)c1ccncc1)c1ccc2ccccc2c1O	16.8 µM (inactive)
Cc1cc(C)c(C(=O)c2nnc3ccccc3c2N)c(C)c1	24 µM (inactive)
CC(C)(C)c1cc(C(=O)/C=C/C=C/c2ccccc2)cc(C(C)(C)C)c1O	25.7 µM (inactive)

Now let's try a different one.
// returns reported GI50 for input COc1ccc(O)c(/C=N/NC(=S)N2CCCCC2)c1
31 µM (inactive)

###

Test system: U-251
Test: NCI tumour cell line growth inhibition, 48 h
Activity calls are given as the source filed them. No stated cut-off is given here; in the data, active = GI50 up to about 1.1 µM and inactive = higher.
// reported GI50 per item

compound	GI50
COc1cccc2cc(C)c(C(=O)c3ccccc3)nc12	> 100 µM (inactive)
C[C@]12CC[C@H]3[C@@H](CCC4=C(Br)C(=O)C=C[C@@]43O)[C@@H]1CCC2=O	52.6 µM (inactive)
CCOC(=O)CC1=Nc2ccccc2SC1	> 100 µM (inactive)

// returns reported GI50 for input COc1cc(-c2cc(-c3ccccc3)nc(-c3c(OC)ccc4c(C)cc(=O)oc34)c2)cc(OC)c1OC
> 100 µM (inactive)

Also O/N=C1\Nc2ccccc2OCc2cc(Br)c(Br)cc2COc2ccccc2N\C1=N/O ?
13.8 µM (inactive)

Also Clc1ccc(/C=C/c2nc(-c3ccc(Cl)cc3)cn3c2nc2ccccc23)cc1 ?
> 100 µM (inactive)

Also Cc1cn([C@H]2[C@@H](CO)C[C@H]2O)c(=O)[nH]c1=O ?
> 100 µM (inactive)

Also COc1ccc(O)c(/C=N/NC(=S)N2CCCCC2)c1 ?
1.85 µM (inactive)

Also C[C@@H](NC1CCC[C@@H]1O)c1ccccc1 (some centres undefined) ?
> 100 µM (inactive)

Also CCSc1nnc(CSc2nc(-c3ccccc3)c(-c3ccccc3)[nH]2)n1-c1ccccc1 ?
17.9 µM (inactive)

Also CCC(CC)C(=O)OC[n+]1ccc(-c2c(COC(=O)NC(C)C)c(COC(=O)NC(C)C)c3n2CCC3)cc1 ?
> 100 µM (inactive)

Also O=C(Nc1ccc(/N=N/c2ccccc2)cc1)Sc1ccccc1C(=O)O ?
> 100 µM (inactive)

Also COc1cc(C=O)cc(/C=N/c2ccc(Br)cc2)c1O ?
4.57 µM (inactive)

Also COc1ccc(N2C(=O)C3c4[nH]c5c(C)cccc5c4C4CCC(C(C)C)CC4C3C2=O)cc1 (centres undefined) ?
10 µM (inactive)

###

Tested on: LXFL 529
Test: NCI tumour cell line growth inhibition, 48 h
Active and inactive are the calls of the source. Cut-off read from the data, not from the text of the source: active = GI50 up to about 1.1 µM and inactive = higher.
Mark one answer only. Choices: YES (active), NO (inactive)

Worked cases, answers included:
compound	cat
CCCCCCC(=O)OC[n+]1ccc2c(C)c3[nH]c4ccccc4c3c(C)c2c1	YES
O=C1CC2C(=O)N(Cc3ccccc3)C1C(S(=O)(=O)c1ccccc1)C2S(=O)(=O)c1ccccc1 (stereo not given)	NO
CCSc1nnc(CSc2nc(-c3ccccc3)c(-c3ccccc3)[nH]2)n1-c1ccccc1	NO

Write down the call the test reported for this compound. Item: Cc1ccc(Nc2nc3c(s2)C(=O)c2ccccc2C3=O)cc1
NO

Also COc1cccc(N2C(=O)[C@H]3[C@H]4CC(C(C)(C)C)CC[C@H]4c4c([nH]c5ccccc45)[C@H]3C2=O)c1 (stereo not given in full) ?
NO

Also O=c1[nH]c(C2CCCCC2)nc2ccc(Cl)cc12 ?
NO

Also C/C(CN1C(=O)c2ccccc2C1=O)=N\NS(=O)(=O)c1ccc(Cl)cc1 ?
NO

Also Cn1nc2ccc3nccc(N(CCO)CCO)c3c2n1 ?
NO

Also COC(=O)C1C2C=CC(C2)C1(C(=O)OC)[S+]([O-])CC12CCC(CC1O)C2(C)C (stereo not given) ?
NO

Also CC1(C)OCN(c2ccc(N3CCOCC3)cc2)Cn2c1nc1ccccc12 ?
NO

###

Tested on: COLO 205
Test: NCI tumour cell line growth inhibition, 48 h
The source made the active and inactive calls. No stated cut-off is given here; in the data, active = GI50 up to about 1.1 µM and inactive = higher.
Mark one answer only. Choices: active, inactive

Worked cases, answers included:
molecule	target or test system	cat
O=CN1CCN(c2ccc3ccc(O)nc3n2)CC1	COLO 205	inactive
N#Cc1ccsc1Nc1ccccc1[N+](=O)[O-]	COLO 205	inactive
O=C(CCN1CCN2c3ccccc3CCC2C1)c1ccc(F)cc1 (configuration not stated)	COLO 205	inactive
COc1cc(C2c3cc4c(cc3OC(Nc3ccccc3)C2C)OCO4)cc(OC)c1OC (configuration not stated)	COLO 205	active
CC(C)NC(=O)N(Nc1ccccc1)C(C)(C)C	COLO 205	inactive

Write down the call the test reported for this molecule. Item: CC(=O)O/N=C/c1c2ccccc2cc2ccccc12
inactive

Also CC(=O)C(C(C)=O)=C1CCCC(O)O1 (configuration not stated) ?
inactive

Also C/C(Cl)=N\OC(=O)Nc1ccccc1C(F)(F)F ?
inactive

Also COc1cc(C=O)cc(/C=N/c2ccc(Br)cc2)c1O ?
inactive

Also CCC[C@H](O)[C@@H](CNc1cc(NC(C)=O)nc(NC(C)=O)n1)N(Cc1ccccc1)Cc1ccccc1 ?
inactive

Also CCOC(=O)Cc1csc(NC(NC(=O)OCC)(C(=O)OCC)C(F)(F)F)n1 (configuration not stated) ?
inactive

Also COc1ccc(/C(Cl)=C(\C=O)c2ccc(Cl)c(Cl)c2)cc1 ?
inactive

###

Tested on: HT-29
Assay: NCI tumour cell line growth inhibition, 48 h
Calls of active or inactive are those of the source. No stated cut-off is given here; in the data, active = GI50 up to about 1.1 µM and inactive = higher.
Mark one answer only. Choices: active, inactive

Worked cases, answers included:
molecule	target or test system	cat
CCc1[nH]c(=O)c2oc3cc4ccccc4cc3c2c1C(=O)O	HT-29	inactive
Cc1cccc(C)c1NC(=O)CCc1nnc2s/c(=C\c3ccc(N(C)C)cc3)c(=O)n12	HT-29	inactive

Write down the call the test reported for this molecule. Item: CC(=O)OCC1OC(n2c(-c3ccccc3)c(/N=N/c3ccc(C)cc3)c(C)c(C#N)c2=S)C(OC(C)=O)C(OC(C)=O)C1OC(C)=O (centres undefined)
inactive

Also Nc1ccn(C2CC(O)C(COP(=O)(S)OC3CC(n4ccc(N)nc4=O)OC3CO)O2)c(=O)n1 (centres undefined) ?
inactive

Also COC(=O)C1C2C=CC(C2)C1(C(=O)OC)[S+]([O-])CC12CCC(CC1O)C2(C)C (centres undefined) ?
inactive

###

System: HCT-116
Test: NCI tumour cell line growth inhibition, 48 h
Activity calls are given as the source filed them. Cut-off read from the data, not from the text of the source: active = GI50 up to about 1.1 µM and inactive = higher.
// reported GI50 per item

Check out these entries, answers already filled in.
compound	reported measurement
CC(=O)Nc1ccc(NS(=O)(=O)c2ccc3nc(C)n(NS(=O)(=O)c4ccc(NC(C)=O)cc4)c(=O)c3c2)cc1	> 100 µM (inactive)
Cc1nc(Nc2ccc(Cl)cc2Cl)sc1C(=O)Nc1ccccc1	35.1 µM (inactive)
C[C@]12C[C@@H](c3ccccc3)Nc3ccccc3N1C(c1ccccc1)=NO2	37.9 µM (inactive)

// returns reported GI50 for input COC1CC(OC2CCC3(C)C(=CCC4C3C(OC(C)=O)C(OC(=O)CC(C)C)C3(C)C(C(C)=O)CCC43O)C2)OC(C)C1OC1CC(OC)C(OC2CC(OC)C(OC3OC(C)C(OC4OC(CO)C(O)C(O)C4O)C(OC)C3O)C(C)O2)C(C)O1 (stereo not drawn)
> 75 µM (inactive)

Also O=S(=O)(N/N=C/c1ccc(Cl)c(Cl)c1)c1ccccc1 ?
35.1 µM (inactive)

Also C1CCNCC1.Oc1ncnc2[nH]cc(CN3CCCCC3)c12 ?
15.7 µM (inactive)

Also CC(NC1=NCCO1)c1ccco1 (stereo not drawn) ?
> 100 µM (inactive)

Also O=C1CC2C(=O)N(Cc3ccccc3)C1C(S(=O)(=O)c1ccccc1)C2S(=O)(=O)c1ccccc1 (stereo not drawn) ?
4.68 µM (inactive)

Also Cc1nc2ccccc2c(=O)n1/N=C(\N=N\c1cc(Cl)ccc1Cl)c1cccc(-c2ccco2)c1 ?
53.3 µM (inactive)

###

// reported GI50 per item
Tested on: A549
Experiment: NCI tumour cell line growth inhibition, 48 h
The source made the active and inactive calls. Cut-off read from the data, not from the text of the source: active = GI50 up to about 1.1 µM and inactive = higher.

molecule	GI50
O=C1c2cc(O)c(O)cc2O[C@H](c2ccc(O)c(O)c2)[C@H]1O	> 100 µM (inactive)
COC1CC(OC2CCC3(C)C(=CCC4C3C(OC(C)=O)C(OC(=O)CC(C)C)C3(C)C(C(C)=O)CCC43O)C2)OC(C)C1OC1CC(OC)C(OC2CC(OC)C(OC3OC(C)C(OC4OC(CO)C(O)C(O)C4O)C(OC)C3O)C(C)O2)C(C)O1 (stereo unspecified)	> 75 µM (inactive)
CCOC(=O)c1csc(NC(=O)C(C)N2CCCC2)n1 (stereo unspecified)	> 100 µM (inactive)
O=C1c2cc3c(cc2CC12Cc1cc4c(cc1C2)CCC4)CCC3	> 100 µM (inactive)
Cc1ccccc1-n1c2nc(=O)n(C)c(=O)c-2nc2ccccc21	13.2 µM (inactive)

// returns reported GI50 for input O=CN1CCN(c2ccc3ccc(O)nc3n2)CC1
> 100 µM (inactive)

Also CN(NC(=O)/C(=C/c1ccc(Cl)cc1)NC(=O)c1ccccc1)c1cn[nH]c(=O)c1Cl ?
> 100 µM (inactive)

Also C/C(CCn1[nH]c(=O)ccc1=O)=N\O ?
> 100 µM (inactive)

Also Cc1cc2c(cc1C)C(=O)C1(C2)Cc2c(C)ccc(C)c2C1=O (stereo unspecified) ?
> 100 µM (inactive)

Also Clc1ccc(/C=C/c2nc(-c3ccc(Cl)cc3)cn3c2nc2ccccc23)cc1 ?
> 100 µM (inactive)

Also COC(=O)/C(C#N)=C1\CCC(Nc2cccc(C(F)(F)F)c2)N1C (stereo unspecified) ?
> 100 µM (inactive)

Also CC(=O)O/N=C/c1c2ccccc2cc2ccccc12 ?
47.9 µM (inactive)

Also COc1ccc(C(C2=C(O)COC2=O)c2cc3c(cc2O)OCO3)cc1OC (stereo unspecified) ?
> 100 µM (inactive)

Also CCOC(=O)c1c(N2CCCC2)[nH]c(=O)c(C(c2cccs2)c2c(O)c(C(=O)OCC)c(N3CCCC3)[nH]c2=O)c1O ?
> 100 µM (inactive)

Also CCc1[nH]c(=O)nc(N)c1-c1ccc(N2CCCCC2)c([N+](=O)[O-])c1 ?
> 100 µM (inactive)
